Measured values drawn from paper PMC3547732 for this set.

# PROCEDURE SUMMARY: Enthalpy of solution by microreaction calorimetry
# Assay type: physicochemical
# CONDITION: 25°C
METRIC: Molar enthalpy of solution, Phosphate buffer (pH8) ΔsolH (kJ mol^-1)
The response must be a number in kJ mol^-1 with no trailing unit.

Tell me Molar enthalpy of solution, Phosphate buffer (pH8) ΔsolH reported for CC(C)=O.CC(C)=O.CC(C)c1c(C(=O)Nc2ccccc2)c(-c2ccccc2)c(-c2ccc(F)cc2)n1CC[C@@H](O)C[C@@H](O)CC(=O)[O-].CC(C)c1c(C(=O)Nc2ccccc2)c(-c2ccccc2)c(-c2ccc(F)cc2)n1CC[C@@H](O)C[C@@H](O)CC(=O)[O-].CC(C)c1c(C(=O)Nc2ccccc2)c(-c2ccccc2)c(-c2ccc(F)cc2)n1CC[C@@H](O)C[C@@H](O)CC(=O)[O-].CC(C)c1c(C(=O)Nc2ccccc2)c(-c2ccccc2)c(-c2ccc(F)cc2)n1CC[C@@H](O)C[C@@H](O)CC(=O)[O-].CCO.[Ca+2].[Ca+2] [Solvate VI]
8.35

----------
# PROCEDURE SUMMARY: Desolvation of solvates by DSC and TGA
# Type: physicochemical
# CONDITION: calculated from enthalpies of solution, heat capacities and enthalpy of vapourization
METRIC: Enthalpy of desolvation, ΔdesolvH calculated from equation 4 (kJ/mol)
The response must be a number in kJ/mol with no trailing unit.

Reference set (2 entries):
| MOLECULE | OUTPUT UNIT | NUMERIC READOUT |
| --- | --- | --- |
| CC(C)c1c(C(=O)Nc2ccccc2)c(-c2ccccc2)c(-c2ccc(F)cc2)n1CC[C@@H](O)C[C@@H](O)CC(=O)[O-].CC(C)c1c(C(=O)Nc2ccccc2)c(-c2ccccc2)c(-c2ccc(F)cc2)n1CC[C@@H](O)C[C@@H](O)CC(=O)[O-].CCCCO.[Ca+2] [Solvate VIII] | kJ/mol | 31.81 |
| CC(C)c1c(C(=O)Nc2ccccc2)c(-c2ccccc2)c(-c2ccc(F)cc2)n1CC[C@@H](O)C[C@@H](O)CC(=O)[O-].CC(C)c1c(C(=O)Nc2ccccc2)c(-c2ccccc2)c(-c2ccc(F)cc2)n1CC[C@@H](O)C[C@@H](O)CC(=O)[O-].CC(C)c1c(C(=O)Nc2ccccc2)c(-c2ccccc2)c(-c2ccc(F)cc2)n1CC[C@@H](O)C[C@@H](O)CC(=O)[O-].CC(C)c1c(C(=O)Nc2ccccc2)c(-c2ccccc2)c(-c2ccc(F)cc2)n1CC[C@@H](O)C[C@@H](O)CC(=O)[O-].CCO.O.O.[Ca+2].[Ca+2] [Solvate VII] | kJ/mol | 103.96 |

Tell me Enthalpy of desolvation, ΔdesolvH calculated from equation 4 reported for CC(C)(C)O.CC(C)c1c(C(=O)Nc2ccccc2)c(-c2ccccc2)c(-c2ccc(F)cc2)n1CC[C@@H](O)C[C@@H](O)CC(=O)[O-].CC(C)c1c(C(=O)Nc2ccccc2)c(-c2ccccc2)c(-c2ccc(F)cc2)n1CC[C@@H](O)C[C@@H](O)CC(=O)[O-].CC(C)c1c(C(=O)Nc2ccccc2)c(-c2ccccc2)c(-c2ccc(F)cc2)n1CC[C@@H](O)C[C@@H](O)CC(=O)[O-].CC(C)c1c(C(=O)Nc2ccccc2)c(-c2ccccc2)c(-c2ccc(F)cc2)n1CC[C@@H](O)C[C@@H](O)CC(=O)[O-].[Ca+2].[Ca+2] [Solvate IV]
78.31
